system_tested: T1, C5a receptor (Homo sapiens, UniProt P21730)
T1 construct: Neutrophils were purified from human peripheral blood; endogenous in cells; host or cells: neutrophils from human peripheral blood
T1 sequence (P21730 1-350): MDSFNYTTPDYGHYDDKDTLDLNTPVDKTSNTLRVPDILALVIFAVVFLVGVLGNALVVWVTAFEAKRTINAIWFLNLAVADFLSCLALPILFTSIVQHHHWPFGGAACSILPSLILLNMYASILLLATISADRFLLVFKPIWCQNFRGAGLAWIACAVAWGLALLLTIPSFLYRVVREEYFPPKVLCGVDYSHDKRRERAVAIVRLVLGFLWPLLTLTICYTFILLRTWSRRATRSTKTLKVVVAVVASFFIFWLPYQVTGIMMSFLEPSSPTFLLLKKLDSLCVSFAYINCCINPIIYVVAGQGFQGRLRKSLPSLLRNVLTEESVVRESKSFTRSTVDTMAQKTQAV
assay_notes: C5a induced Ca++ rise in fura-2 loaded neutrophils (antagonist IC50 / agonist EC50)
Assay type: cell-based
reported_conditions: highest concentration tested; agonist activity was not detected
readout_kind: Concentration up to which tested and agonist activity not detected (calcium rise)

INSERT INTO assay_data (molecule, test_result) VALUES
  ('C5a(1-72,T1M,C27S,L72C) (protein, UniProt P01031 678-749, looked up, fragment T1M C27S L72C, C5a anaphylatoxin) MLQKKIEEIAAKYKHSVVKKCCYDGASVNNDETCEQRAARISLGPRCIKAFTECCVVASQLRANISHKDMQC', '> 1500 nM'),
  ('C5a(1-70,T1M,C27S,M70C) (protein, UniProt P01031 678-747, looked up, fragment T1M C27S M70C, C5a anaphylatoxin) MLQKKIEEIAAKYKHSVVKKCCYDGASVNNDETCEQRAARISLGPRCIKAFTECCVVASQLRANISHKDC', '> 1000 nM'),
  ('C5a(1-71,T1M,C27S,Q71C) (protein, UniProt P01031 678-748, looked up, fragment T1M C27S Q71C, C5a anaphylatoxin) MLQKKIEEIAAKYKHSVVKKCCYDGASVNNDETCEQRAARISLGPRCIKAFTECCVVASQLRANISHKDMC', '> 3000 nM'),
  ('C5a(1-71,T1M,C27S,H67F,Q71C) (protein, UniProt P01031 678-748, looked up, fragment T1M C27S H67F Q71C, C5a anaphylatoxin) MLQKKIEEIAAKYKHSVVKKCCYDGASVNNDETCEQRAARISLGPRCIKAFTECCVVASQLRANISFKDMC', '> 800 nM');
